experiment: qHTS of TDP-43 Inhibitors; conditions: TDP-43 expressing yeast growth rescue, BacTiter-Glo, 24 h; series mostly up to 46.1 µM; note: nearly all actives have a fitted effect of over 50% in size
In all, about 410,000 compounds went through this assay and about 7,200 (1.8%) were called active. Roughly 7% stayed inconclusive and do not appear here. Calls come from the whole dose curve; as a rule, active = well fitted activation curve with a large enough effect; inconclusive = small, poorly fitted or top-dose-only effect, or another doubt; inactive = no such curve, though single readings can be large or run the other way. The sample as a whole holds a higher share of actives than the screen did.
Outcome codes: y (active), n (inactive)

| compound | className |
| --- | --- |
| CCOc1ccccc1CNC(=O)c1ccc2c(c1)nc1n2CCC(C)C1 (stereo unspecified) | n |
| CCN1CCN(c2ncc3c(n2)CC(c2ccccc2O)CC3=O)CC1 (stereo unspecified) | n |
| O=C(NCc1nnnn1-c1ccc(Cl)cc1)c1ccc2c(c1)OCO2 | n |
| Cc1cccc(C2CC(=O)Oc3c2c(=O)n(C)c2ccccc32)c1 (stereo unspecified) | n |
| Cc1cccc(Oc2c([N+](=O)[O-])c(=O)n(C)c3ccccc23)c1 | y |
| CCc1ccccc1N1CC(c2nc3ccccc3n2CCCCOc2ccccc2)CC1=O (stereo unspecified) | n |
| COc1ccccc1C(=O)Nc1cccc(C(=O)N2CCOCC2)c1 | n |
| CCCCn1cc(S(=O)(=O)c2ccc(OCC)cc2)c(=O)c2cc(OC)c(OC)cc21 | n |
| Cn1c(=O)c([N+](=O)[O-])c(Oc2ccccc2)c2ccccc21 | n |
| COc1cn(CC(=O)Nc2cccc(C)c2C)c(CN2CCCCC2)cc1=O | n |
| FC(F)(F)c1cc(Nc2nc3ccccc3c3nncn23)ccc1Cl | n |

----------
experiment: qHTS of TDP-43 Inhibitors; details: TDP-43 expressing yeast growth rescue, BacTiter-Glo, 24 h; series mostly up to 46.1 µM; note: nearly all actives have a fitted effect of over 50% in size
The campaign covered roughly 410,000 compounds. About 7,200 (1.8%) were called active. About 7% were inconclusive and are not listed. Calls follow the shape of the dose curve; as a rule, active = well fitted activation curve with a large enough effect; inconclusive = small, poorly fitted or top-dose-only effect, or another doubt; inactive = no such curve, though single readings can be large or run the other way. The list comes from a sample in which actives are over-represented; it also holds close analogues and randomly drawn compounds.
Outcome codes: true (1) = active, false (0) = inactive

| compound | className |
| --- | --- |
| CCCCN(CC)CCCNC(=O)c1nn(C)c2c1CSc1ccccc1-2 | false (0) |
| COC(=O)c1sc2ncccc2c1-n1c(C)ccc1C | false (0) |
| O=C(NCc1ccc(Cl)cc1)c1cc2c(nc3sccn32)s1 | false (0) |
| CCN(CCCNC(=O)Cn1ncc2c([nH]c3ccccc32)c1=O)c1cccc(C)c1 | false (0) |
| COc1ccc(CCNC(=O)c2nn(C)c3c2CSc2ccccc2-3)cc1OC | true (1) |
| Cc1ccc(Nc2c(-c3ccc(Cl)cc3)nc3sccn23)c(C)c1 | true (1) |
| CCCCn1c(=S)[nH]c2ncccc2c1=O | false (0) |
| CCCCNC(=O)c1ccc(-n2c(=S)[nH]c3ccccc3c2=O)cc1 | false (0) |
| COC(=O)c1sc(=S)n(-c2ccc(Cl)cc2)c1C | true (1) |
| Cn1c(=O)c2[nH]c(NCC3CCCO3)nc2n(-c2ccccc2)c1=O (stereo unspecified) | false (0) |
| Cc1ccc(S(=O)(=O)NCc2cn3ccsc3n2)c(C)c1 | false (0) |

----------
assay: qHTS of TDP-43 Inhibitors; conditions: TDP-43 expressing yeast growth rescue, BacTiter-Glo, 24 h; series mostly up to 46.1 µM; note: nearly all actives have a fitted effect of over 50% in size
Hit rate of the full screen: of about 410,000 compounds, about 7,200 (1.8%) were called active. Another 7% or so got no clear call; they are omitted. The call rests on the fitted dose curve; in most records, active means well fitted activation curve with a large enough effect; inconclusive means small, poorly fitted or top-dose-only effect, or another doubt; inactive means no such curve, though single readings can be large or run the other way. This is one part of a sample in which actives are shown more often than they occur.
Outcome codes: yes for active, no for inactive

| compound | className |
| --- | --- |
| Cc1cccc(C)c1NC(=O)C(Cl)C(=O)c1ccccc1 (configuration not stated) | yes |
| O=C(NC1CC(=O)N(c2ccc(F)cc2)C1)c1ccc(S(=O)(=O)N2CCCC2)cc1 (configuration not stated) | no |
| CCOC(=O)c1c(C)[nH]c(CCC(=O)NCCCN2CCN(c3cccc(Cl)c3)CC2)c1C | no |
| Cc1ccc2nc3c(cc(C(=O)NC4CCCCC4)c(=N)n3C(C)C)c(=O)n2c1 | no |
| O=C(c1ccccc1F)N1CCC(c2nc3c(nnn3Cc3cccc(F)c3)c(=O)[nH]2)CC1 | no |
| Cc1nc(N)sc1-c1ccccc1 | no |
| Cc1ccccc1OCc1nc2c3cnn(-c4ccccc4F)c3ncn2n1 | no |
| CC(=O)Nc1cccc(-c2cc(NC(C)=O)c3ncc(-c4ccccc4)n3c2)c1 | no |
| CCOc1ccc(C(=O)c2cn(Cc3ccccc3OC)c3ccc(F)cc3c2=O)cc1 | no |
| CNC(=O)c1ccc(-c2nc(CN3CCc4ccccc43)c(C)o2)cc1 | yes |
| CCOC(=O)C1=C(NC(=S)NC(=O)c2ccccc2)c2ccccc2CC1(C)C | no |
| Cc1cc2ncn(CCCCOc3ccccc3)c2cc1C | no |
| CCN(CCn1cccn1)Cc1cn[nH]c1-c1ccc(OC)cc1F | no |
| CC(C)CC(N=C1NC(C)(C)Cc2ccccc21)C(=O)O (configuration not stated) | no |
| COc1ccc(-c2noc(CSc3nc4ccc(C)cc4[nH]3)n2)cc1 | no |
| Cc1ccc(-n2c(Cc3cccs3)nnc2SCC(=O)OC(C)C)cc1 | no |
| CCCN1C(=O)C(O)(CC(=O)c2ccc(CC)cc2)c2cc(Br)ccc21 (configuration not stated) | yes |
| Cc1ccc(-c2nc(CSCC(=O)NC3CCN(Cc4ccccc4)CC3)c(C)o2)cc1 | no |
| CCCC(=O)Nc1ccc(NC(=O)c2sc3ccccc3c2Cl)cc1 | no |
| Cc1coc(C)c1C(=O)CC1(O)C(=O)N(C)c2ccc(Cl)cc21 (configuration not stated) | no |
| Cc1c(C(N)=O)sc2ncn(CCOc3ccccc3)c(=O)c12 | no |
| CC(NC(=O)c1cc(Sc2ccc(F)cc2F)nc2ccccc12)c1ccccc1 (configuration not stated) | no |
